Molecular target: Adrenergic receptor alpha-1 (Rattus norvegicus, UniProt P15823+P23944+P43140)
Assay: Alpha-1 adrenergic receptor blocking activity against norepinephrine-induced contraction in epididymal portion of rat vas deferens
Type: tissue-based
value_type: pA2

>>> value("COc1cccc(OC)c1OCCNC[C@@H]1CSc2ccccc2C1=O")
8.89
>>> value("COc1cccc(OC)c1OCCNC[C@@H]1CSc2ccccc2O1")
9.05
>>> value("COc1cccc(OC)c1OCCNC[C@@H]1COc2ccccc2[C@H]1O")
7.33
>>> value("COc1cccc(OC)c1OCCNC[C@@H]1COc2ccccc2[C@@H]1O")
7.22
>>> value("COc1cccc(OC)c1OCCNC[C@@H]1COc2ccccc2C1=O")
8.93
>>> value("COc1cccc(OC)c1OCCNC[C@@H]1COc2ccccc2C1")
7.97
>>> value("COc1cccc(OC)c1OCCNC[C@@H]1C[S@@+]([O-])c2ccccc2O1 (relative stereo)")
7.71
>>> value("COc1cccc(OC)c1OCCNCc1cccc2ccccc12")
7.33
>>> value("COc1cccc(OC)c1OCCNC[C@@H]1COc2ccccc2S1")
7.94
>>> value("COc1cccc(OC)c1OCCNCC1COc2ccccc2O1 (configuration not stated)")
9.24
>>> value("COc1cccc(OC)c1OCCNC[C@@H]1C[S@+]([O-])c2ccccc2O1 (relative stereo)")
7.54
>>> value("COc1cccc(OC)c1OCCNCc1ccc2ccccc2c1")
7.75
